Exercise: for every item that follows, state its recorded log10 IC50.
- subject of test: NLRP3 inflammasome (Homo sapiens, UniProt Q96P20)
- Sequence (Q96P20 whole entry): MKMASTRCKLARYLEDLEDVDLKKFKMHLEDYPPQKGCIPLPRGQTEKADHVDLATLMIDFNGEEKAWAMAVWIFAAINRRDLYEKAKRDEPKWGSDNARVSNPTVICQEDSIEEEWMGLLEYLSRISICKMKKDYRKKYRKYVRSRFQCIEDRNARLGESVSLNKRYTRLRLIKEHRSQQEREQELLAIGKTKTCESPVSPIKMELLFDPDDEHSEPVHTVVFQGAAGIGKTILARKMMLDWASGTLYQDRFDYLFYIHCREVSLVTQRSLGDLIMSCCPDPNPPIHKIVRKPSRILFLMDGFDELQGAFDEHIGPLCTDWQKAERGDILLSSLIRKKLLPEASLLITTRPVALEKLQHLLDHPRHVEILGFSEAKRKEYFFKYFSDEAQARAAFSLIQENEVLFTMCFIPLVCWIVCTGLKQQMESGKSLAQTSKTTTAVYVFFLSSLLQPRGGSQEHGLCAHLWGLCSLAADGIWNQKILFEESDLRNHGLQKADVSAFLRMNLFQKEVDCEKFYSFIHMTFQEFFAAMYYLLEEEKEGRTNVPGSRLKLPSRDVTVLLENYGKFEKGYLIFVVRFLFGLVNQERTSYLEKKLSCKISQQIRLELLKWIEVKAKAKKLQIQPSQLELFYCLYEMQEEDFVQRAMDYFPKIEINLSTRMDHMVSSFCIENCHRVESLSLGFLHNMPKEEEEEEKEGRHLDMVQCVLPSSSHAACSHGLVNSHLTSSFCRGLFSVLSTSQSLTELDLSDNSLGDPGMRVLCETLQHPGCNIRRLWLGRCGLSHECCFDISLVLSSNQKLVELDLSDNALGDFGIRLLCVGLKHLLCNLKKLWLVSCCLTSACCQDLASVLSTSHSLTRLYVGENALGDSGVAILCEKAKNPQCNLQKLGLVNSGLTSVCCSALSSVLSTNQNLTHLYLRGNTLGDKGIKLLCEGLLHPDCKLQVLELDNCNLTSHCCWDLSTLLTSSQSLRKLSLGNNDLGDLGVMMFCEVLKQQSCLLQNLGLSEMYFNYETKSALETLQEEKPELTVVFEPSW
- measurement notes: IL-1β assay in IFN-γ-differentiated, LPS-primed, ATP-activated THP-1 cells (ELISA)
- recorded conditions: 50 ng/mL LPS priming, 2.5 mM ATP activation, 2 hours
Hey, these are logged values: log10 of IC50, nM being the unit before logging.

- compound: "COc1ccc(-c2nnc(N[C@@H]3C[C@@H](F)CN(C)C3)c3cnccc23)cc1"
  log10 IC50: 2.20

Give me log10 IC50 for each of these compounds, listed below.
1. CN1CCCC(Nc2nnc(-c3cccc(Cl)c3)c3ccccc23)C1 (centres unmarked)
2. Clc1ccc(-c2nnc(NC3CN4CCC3C4)c3ccccc23)cc1 (centres unmarked)
3. CN1CCC[C@@H](Nc2nnc(-c3ccc(F)cc3O)c3ccncc23)C1
4. CN1CCCC(Nc2nnc(-c3ccc(Cl)c(F)c3)c3ccccc23)C1 (centres unmarked)

A:
1. 3.65
2. 3.52
3. 1.48
4. 1.99
